- Tested On: OsSMF1 (Oryza sativa, UniProt Q6ZLB0 1-436)
- Sequence: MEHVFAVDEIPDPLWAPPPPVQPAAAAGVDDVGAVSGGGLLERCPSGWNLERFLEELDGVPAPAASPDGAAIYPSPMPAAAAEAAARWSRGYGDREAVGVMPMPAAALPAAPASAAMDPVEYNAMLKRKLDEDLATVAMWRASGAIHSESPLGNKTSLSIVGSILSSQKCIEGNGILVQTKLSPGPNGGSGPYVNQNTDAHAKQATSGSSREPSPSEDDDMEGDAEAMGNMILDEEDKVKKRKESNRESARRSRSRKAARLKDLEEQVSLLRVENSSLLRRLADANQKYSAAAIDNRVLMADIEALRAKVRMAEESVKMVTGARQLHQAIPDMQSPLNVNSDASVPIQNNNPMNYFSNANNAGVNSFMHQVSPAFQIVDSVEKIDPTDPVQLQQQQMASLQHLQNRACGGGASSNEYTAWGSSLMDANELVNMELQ
- Assay Procedure: protein-binding microarray (RPBM); PBS, 2% BSA, 51.3 ng/ul salmon testes DNA, 50 uM zinc acetate, 200 nM TF, 25 C, 1 h; high values mean tight binding
- Condition Parameters: protein: recombinant; tags: N-terminal polyhistidine and DsRed monomer fusion (pET32a); chain copies: 2; label: CyDye5-dUTP incorporated in the synthesized complementary strand; 3' TTTTT single-stranded linker to array surface; dsDNA, one strand shown
The full ranking holds about 39,000 sequences; the median of “fluorescence intensity (a.u.)” is about 4,300, and the highest 2% start at about 39,000. This excerpt belongs to a sample that is enriched for the highest values.
Property: binding signal

A selection of reference data follows.
### Prompt Can you share its binding signal? I mean this sequence: CGCACTCAGCTTGTTCCTCTAACTGTACACAGTGGTACTTCGGAGTCACCTAGTGCAG
### Response 26500 fluorescence intensity (a.u.)

### Prompt Which binding signal reading was recorded for the sequence CCTCTAGATCCTCTATGGTACTATATGTACAGTGCTGTTTCGGAGTCACCTAGTGCAG ?
### Response 42900 fluorescence intensity (a.u.)

### Prompt Given CTTTGGCTTTTAGCCATAGACTTTGATCCATGAGTTAGAACGGAGTCACCTAGTGCAG , state its recorded binding signal.
### Response 40900 fluorescence intensity (a.u.)

### Prompt Look at this sequence and give its reported binding signal. TGTCGGTACTTTCATACGTCATCTATGTATGAGTCGGTTTCGGAGTCACCTAGTGCAG
### Response 10600 fluorescence intensity (a.u.)

### Prompt Reported binding signal, sequence GAGTTGAGTTTAGACTTTCTAGAGTGGTATATGTATGTTTCGGAGTCACCTAGTGCAG : ____
### Response 40900 fluorescence intensity (a.u.)

### Prompt Can you look up the measured binding signal of GTCCAGATTCGTTGTACTAGAATATGTCAGATCCAGTCCTCGGAGTCACCTAGTGCAG for me?
### Response 3410 fluorescence intensity (a.u.)

### Prompt Query: binding signal; subject: TTTTGAGCCTAGTTAGTCCATGATTAGCCATAAATGCTACCGGAGTCACCTAGTGCAG
### Response 4540 fluorescence intensity (a.u.)

### Prompt Fill blank: measured binding signal of the sequence TCATCATCAAGACTGAGTCACTGACACGTGTGCACCTATGCGGAGTCACCTAGTGCAG is ____.
### Response 27900 fluorescence intensity (a.u.)

Next:
### Prompt Can you look up the measured binding signal of TTTTAGCCTCCTTTTGGTTAATCTTTGTTTGATCCAAGAACGGAGTCACCTAGTGCAG for me?
### Response 10200 fluorescence intensity (a.u.)

====

- Tested On: OsSMF1 (Oryza sativa, UniProt Q6ZLB0 1-436)
- Sequence: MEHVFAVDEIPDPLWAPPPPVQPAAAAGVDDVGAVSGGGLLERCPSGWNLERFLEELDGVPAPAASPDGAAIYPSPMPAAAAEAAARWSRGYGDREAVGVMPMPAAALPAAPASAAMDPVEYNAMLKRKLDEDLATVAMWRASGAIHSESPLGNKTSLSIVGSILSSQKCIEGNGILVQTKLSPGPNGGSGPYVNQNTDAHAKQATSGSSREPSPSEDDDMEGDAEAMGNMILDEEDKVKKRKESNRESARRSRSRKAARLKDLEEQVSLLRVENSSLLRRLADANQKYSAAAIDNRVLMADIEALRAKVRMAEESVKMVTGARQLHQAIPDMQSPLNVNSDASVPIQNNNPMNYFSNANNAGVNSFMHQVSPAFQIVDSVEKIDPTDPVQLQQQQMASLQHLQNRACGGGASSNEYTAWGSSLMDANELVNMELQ
- Assay Procedure: protein-binding microarray (RPBM); PBS, 2% BSA, 51.3 ng/ul salmon testes DNA, 50 uM zinc acetate, 200 nM TF, 25 C, 1 h; high values mean tight binding
- Condition Parameters: protein: recombinant; tags: N-terminal polyhistidine and DsRed monomer fusion (pET32a); chain copies: 2; label: CyDye5-dUTP incorporated in the synthesized complementary strand; 3' TTTTT single-stranded linker to array surface; dsDNA, one strand shown
Whole data set: some 39,000 sequences, median “fluorescence intensity (a.u.)” near 4,300, cut for the highest 2% near 39,000. The full list was thinned out, with the highest values kept by preference.
Property: binding signal; scope: individual sequences

### Prompt # binding signal lookup, item GCCATGCATCCATACACGTCTACACTCTACACCCATTAACCGGAGTCACCTAGTGCAG
### Response 4850 fluorescence intensity (a.u.)

### Prompt Given TAGTCCAATCCATCGTGTTTCCACGTGGCGACCCAACCCCCGGAGTCACCTAGTGCAG , state its recorded binding signal.
### Response 40000 fluorescence intensity (a.u.)

### Prompt Which binding signal value belongs to GTCACCTAAGTGCCATGTCAACGCCACGTGGAAAGAAGACCGGAGTCACCTAGTGCAG ?
### Response 25100 fluorescence intensity (a.u.)

### Prompt Which binding signal is reported for this sequence? TTGAATGGTGATGTAACTTGCATGGTTCTACACTTGATGACGGAGTCACCTAGTGCAG
### Response 3610 fluorescence intensity (a.u.)

Further cases:
### Prompt Need binding signal of CCATGTAAGTGCCACGTCAACGCCACGTGGATCGAAGACTCGGAGTCACCTAGTGCAG , thanks.
### Response 55500 fluorescence intensity (a.u.)

### Prompt binding signal lookup needed for ATGGGCCATGGCCCATCCGTGCCACGTGTCGCATGCTCCTCGGAGTCACCTAGTGCAG , thanks.
### Response 27900 fluorescence intensity (a.u.)

### Prompt For the sequence ATCTGCTTTGTGAGGCACATGAAGCTGGAGATATCTGTCACGGAGTCACCTAGTGCAG , what binding signal is on record?
### Response 4740 fluorescence intensity (a.u.)

### Prompt Given the sequence CACCGCGACGCACATACCCACCCGCCGGCCACGCACGAGACGGAGTCACCTAGTGCAG , what is its reported binding signal?
### Response 4460 fluorescence intensity (a.u.)

### Prompt Look at this sequence and give its reported binding signal. GGTGTGGAGGGGTTGGACCAGAGCACGACGACGGCGAGGACGGAGTCACCTAGTGCAG
### Response 45100 fluorescence intensity (a.u.)

====

Listed next: entries and their corresponding binding signal.
- Tested On: OsSMF1 (Oryza sativa, UniProt Q6ZLB0 1-436)
- Sequence: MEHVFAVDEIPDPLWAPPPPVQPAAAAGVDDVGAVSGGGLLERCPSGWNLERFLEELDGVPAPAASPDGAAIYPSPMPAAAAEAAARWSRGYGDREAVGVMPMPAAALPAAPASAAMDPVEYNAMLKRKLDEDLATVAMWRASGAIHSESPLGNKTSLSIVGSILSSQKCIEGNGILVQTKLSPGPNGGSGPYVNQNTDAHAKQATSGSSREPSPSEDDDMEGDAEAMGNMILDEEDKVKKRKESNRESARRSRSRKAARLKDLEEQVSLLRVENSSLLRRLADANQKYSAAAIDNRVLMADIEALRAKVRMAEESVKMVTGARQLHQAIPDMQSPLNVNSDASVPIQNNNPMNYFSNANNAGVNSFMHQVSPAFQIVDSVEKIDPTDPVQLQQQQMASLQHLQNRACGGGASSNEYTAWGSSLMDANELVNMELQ
- Assay Procedure: protein-binding microarray (RPBM); PBS, 2% BSA, 51.3 ng/ul salmon testes DNA, 50 uM zinc acetate, 200 nM TF, 25 C, 1 h; high values mean tight binding
- Condition Parameters: protein: recombinant; tags: N-terminal polyhistidine and DsRed monomer fusion (pET32a); chain copies: 2; label: CyDye5-dUTP incorporated in the synthesized complementary strand; 3' TTTTT single-stranded linker to array surface; dsDNA, one strand shown
Whole data set: some 39,000 sequences, median “fluorescence intensity (a.u.)” near 4,300, cut for the highest 2% near 39,000. The sample as a whole holds a higher share of the highest values than the screen did.

### Prompt Which measured binding signal value corresponds to CAGCCGGGCCCACGTGTCAGTGAGTGCGTGACGCGTCAGCCGGAGTCACCTAGTGCAG ?
### Response 15200 fluorescence intensity (a.u.)

### Prompt Name the reported binding signal value associated with the sequence AAACATTATTAAATAGGTGTATGAATGACAGTCATACTTGCGGAGTCACCTAGTGCAG
### Response 3490 fluorescence intensity (a.u.)

### Prompt Dear colleague, I am looking for the recorded binding signal of the following sequence: TGAGATATATATTTCGTATGTATATAGAGAAATAAAGAAACGGAGTCACCTAGTGCAG
### Response 57100 fluorescence intensity (a.u.)

### Prompt I am curious: what binding signal value has been reported for TCTGTTAGTGTCATACTGTCATCGACATATAATATTCCCTCGGAGTCACCTAGTGCAG ?
### Response 42500 fluorescence intensity (a.u.)

### Prompt Value lookup for binding signal; key = CGACATTAAAGATTATGAATATTATGGGCAAATATAGGTCCGGAGTCACCTAGTGCAG
### Response 57600 fluorescence intensity (a.u.)

Continuing:
### Prompt Please give the measured binding signal for this sequence: GAATAATTTATTAAATAATTTATAAATCCTGAAACGAAAACGGAGTCACCTAGTGCAG
### Response 3520 fluorescence intensity (a.u.)

### Prompt State the recorded binding signal for this entry: TTGTATAACTATGTGTATATGTGTATGGTTATTAAGCAAACGGAGTCACCTAGTGCAG
### Response 10500 fluorescence intensity (a.u.)

### Prompt Query (sequence): AAACTTTATGTATAGAAATAATATATATATATATATATATCGGAGTCACCTAGTGCAG ; field requested: binding signal
### Response 29000 fluorescence intensity (a.u.)

### Prompt Which binding signal is listed for TCCATGTATATTACATCATGGGGTTATGTAACATCACTGACGGAGTCACCTAGTGCAG ?
### Response 8280 fluorescence intensity (a.u.)
